assay notes: Oral bioavailability in rat at 10 mg/kg
Format: ADME, organism-based
study conditions: in vivo
experimental endpoint: bioavailability (%)
Answers are plain numbers, in %.

Given the entry `CCN(Cc1cc(C(F)(F)F)ccc1-c1cn(CC(=O)O)c2ccccc12)C(=O)C1CC1` , report its measured bioavailability.
46

---

assay notes: Volume of distribution at steady state in rat at 1 mg/kg
Assay type: ADME, organism-based
Set-up: dose 1 mg/kg
study conditions: in vivo, read-out: Vdss
Exercise: state measured Vd for each of the compounds provided.
One number for each entry, in L/kg.

line notation | experimental endpoint | units | test result
CCN(Cc1cc(C(F)(F)F)ccc1-n1cc(CC(=O)O)c2cccnc21)C(=O)C1CC1 | Vd | L/kg | 3.9
CCN(Cc1cc(C(F)(F)F)ccc1-c1cn(CC(=O)O)c2ccccc12)C(=O)C1CC1 | Vd | L/kg | 2.9
CCN(Cc1cc(C(F)(F)F)ccc1-c1cc(CC(=O)O)ccc1OC)C(=O)C1CC1 | Vd | L/kg | 2

Continue with the next compound.
Given the entry `CCN(Cc1cc(C(F)(F)F)ccc1-c1nn(CC(=O)O)c2ccccc12)C(=O)C1CC1` , report its measured Vd.
5.4
